measured on: T1, LASV Josiah (lineage IV) glycoprotein, full-length GP (Lassa virus, Josiah strain, UniProt P08669 2-491)
T1 sequence: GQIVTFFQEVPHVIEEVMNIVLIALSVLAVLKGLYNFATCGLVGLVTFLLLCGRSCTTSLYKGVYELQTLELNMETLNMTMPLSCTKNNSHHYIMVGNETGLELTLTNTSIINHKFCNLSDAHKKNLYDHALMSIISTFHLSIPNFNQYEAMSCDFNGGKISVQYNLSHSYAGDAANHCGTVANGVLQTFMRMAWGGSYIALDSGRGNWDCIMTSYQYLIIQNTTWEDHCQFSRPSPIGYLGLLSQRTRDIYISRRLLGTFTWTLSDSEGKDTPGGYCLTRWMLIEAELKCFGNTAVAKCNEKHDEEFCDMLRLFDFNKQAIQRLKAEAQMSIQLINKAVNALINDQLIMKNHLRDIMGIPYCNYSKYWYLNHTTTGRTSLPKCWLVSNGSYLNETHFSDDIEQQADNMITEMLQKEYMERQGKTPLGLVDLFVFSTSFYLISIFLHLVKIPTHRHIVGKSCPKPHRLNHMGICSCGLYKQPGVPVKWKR
experiment summary: cell-based or functional assay
assay endpoint: IC50 (neutralization) (µg/mL)

binder="8.11G (antibody, V domains shown) VH: QVQLQESGPGLVKPSETLSLTCSISGVSTRNYYWSWIRQSPGKGLEWIGYIFNIGTTNYNPSLKSRLTISVDTSKNQFSLKITSVTAADTAVYYCASGFEYGDYTFDYWGQGTPVTVSS VL: EIVLTQSPATLSVSPGGRASLSCRASQSIGDKLSWYQQKPGQAPRLVIYGAYTRATDISPRFSGSRSGTDFNLTISRMQSGDFAVYFCQQYENWPRTFGQGTKLEIKR" assay_endpoint="IC50 (neutralization)" censor_symbol=> result=10
binder="36.9F (antibody, V domains shown) VH: EVQLVQSGGGLVKAGGSLKLSCGASGFTFSSYSMSWVRQAPGKGLEWVSYISSGGSSIHYADSVKGRFTISRDNAKNSLYLQMKNLRVDDTGRYYCVRDPRSGISGRYGMDVWGQGTTVTVSS VL: DIVMTQSPDSLAVSLGERATINCKSSQTVLFTSYYVAWYQQKPGQPPKLLFSGASSRESGVPDRFSAGGSGTDFYLTINSLQAEDVADYYCQQYHTPPFTFGGGTKLEIRR" assay_endpoint="IC50 (neutralization)" censor_symbol== result=0.57
binder="37.7H (antibody, V domains shown) VH: EVQLVQSGGGLVKAGGSLRLSCAASGFTFSTYSMNWIRQAPGKGLEWVASISSRSGSHINYVDSVKGRFTISRDNARDLLYLQMNSLRVDDSALYYCARDRRSGTSPLPLDVWGQGTTVTVFS VL: DQSALTQPASVSGSPGQSITISCTGTGSDIGGYNFVSWYQQYPGKAPKLIIYEVRIRASGVSNRFSGSKSGNTASLTISGLQAEDEADYYCNSYSIHSPWVFGGGTKLTVLR" assay_endpoint="IC50 (neutralization)" censor_symbol== result=0.134

All values here come from patent US20200002405A1.
